- Test system: MAO-B (Homo sapiens, UniProt P27338)
- Sequence (P27338 1-520): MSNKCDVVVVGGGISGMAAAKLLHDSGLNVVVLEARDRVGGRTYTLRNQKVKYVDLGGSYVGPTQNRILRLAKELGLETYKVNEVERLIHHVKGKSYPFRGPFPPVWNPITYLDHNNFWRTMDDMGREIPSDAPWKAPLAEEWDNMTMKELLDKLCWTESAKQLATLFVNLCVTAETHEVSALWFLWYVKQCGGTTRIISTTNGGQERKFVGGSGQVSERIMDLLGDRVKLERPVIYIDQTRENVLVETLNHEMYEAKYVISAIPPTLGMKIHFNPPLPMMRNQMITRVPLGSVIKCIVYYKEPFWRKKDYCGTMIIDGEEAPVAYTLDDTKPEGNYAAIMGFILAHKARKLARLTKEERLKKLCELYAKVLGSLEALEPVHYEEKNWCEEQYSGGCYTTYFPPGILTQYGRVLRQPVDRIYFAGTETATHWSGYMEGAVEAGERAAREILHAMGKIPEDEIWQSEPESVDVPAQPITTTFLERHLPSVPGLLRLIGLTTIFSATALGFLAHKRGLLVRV
Reported endpoint: Ki

// returns reported Ki for input COc1cccc(OC)c1NC(=O)c1ccc(Cc2cc3c(cc2C)C(C)(C)CCC3(C)C)o1
> 1000 nM

---

- Test system: mouse GnRH receptor (Mus musculus)
- Construct: expressed in transfected cells; host or cells: 293 cells
- Sequence (Q01776 whole entry): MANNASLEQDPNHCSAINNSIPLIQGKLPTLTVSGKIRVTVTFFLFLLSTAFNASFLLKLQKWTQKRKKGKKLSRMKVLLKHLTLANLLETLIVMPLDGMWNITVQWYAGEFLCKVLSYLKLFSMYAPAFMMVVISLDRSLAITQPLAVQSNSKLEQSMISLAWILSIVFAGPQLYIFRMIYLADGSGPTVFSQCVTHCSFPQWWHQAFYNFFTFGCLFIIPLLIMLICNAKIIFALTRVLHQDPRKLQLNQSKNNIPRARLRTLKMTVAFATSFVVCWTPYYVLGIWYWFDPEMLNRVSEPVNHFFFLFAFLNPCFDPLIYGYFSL
- Test summary: Radioligand binding, 125I-GnRH-A, 293 cells expressing mouse GnRH receptors
- Details: 10 uM; read-out: % Inhib. @ 10 uM mGnRH
Reported endpoint: inhibition at 10 µM

// returns reported inhibition at 10 µM for input COc1cc(CN(Cc2ccncc2)C(=O)c2ccc(Cc3cc4c(cc3C)C(C)(C)CCC4(C)C)o2)ccc1OCc1ccccc1
64%

// returns reported inhibition at 10 µM for input Cc1cc2c(cc1Cc1ccc(C(=O)N3CCC(NC(=O)C(F)(F)F)C3)o1)C(C)(C)CCC2(C)C (stereo not shown) [drawing 1578]
60%

// returns reported inhibition at 10 µM for input Cc1cc2c(cc1Cc1ccc(C(=O)N3CCCC(C(=O)NC(c4ccccc4)c4ccccc4)C3)o1)C(C)(C)CCC2(C)C (stereo not shown)
9%

// returns reported inhibition at 10 µM for input Cc1cc2c(cc1Cc1ccc(C(=O)N3CCC(C(=O)c4ccccc4)CC3)o1)C(C)(C)CCC2(C)C [drawing 1495]
59%

// returns reported inhibition at 10 µM for input COc1cccc(N2CCN(C(=O)c3ccc(Cc4cc5c(cc4C)C(C)(C)CCC5(C)C)o3)CC2)c1 [drawing 1497]
67%

// returns reported inhibition at 10 µM for input Cc1cc2c(cc1Cc1ccc(C(=O)N(C)CCCC34c5ccccc5[C@@H]5CCC53c3ccccc34)o1)C(C)(C)CCC2(C)C (stereo partly shown)
14%

// returns reported inhibition at 10 µM for input Cc1cc2c(cc1Cc1ccc(C(=O)N3CCN(CC(=O)NC(C)C)CC3)o1)C(C)(C)CCC2(C)C
63%

// returns reported inhibition at 10 µM for input Cc1cc2c(cc1Cc1ccc(C(=O)NCC(F)(F)F)o1)C(C)(C)CCC2(C)C [drawing 1271]
26%

// returns reported inhibition at 10 µM for input Cc1cc2c(cc1Cc1ccc(C(=O)NC(C)CCCC(C)C)o1)C(C)(C)CCC2(C)C (stereo not shown) [drawing 1447]
72%

// returns reported inhibition at 10 µM for input Cc1cc2c(cc1Cc1ccc(C(=O)N(CCN3CCCC3)Cc3ccccc3)o1)C(C)(C)CCC2(C)C [drawing 1462]
100%

// returns reported inhibition at 10 µM for input Cc1cc2c(cc1Cc1ccc(C(=O)N3CCC[C@H]3C(N)=O)o1)C(C)(C)CCC2(C)C
74%

// returns reported inhibition at 10 µM for input Cc1cc2c(cc1Cc1ccc(C(=O)N(CCC#N)C3CCCC3)o1)C(C)(C)CCC2(C)C
88%

// returns reported inhibition at 10 µM for input Cc1cc2c(cc1Cc1ccc(C(=O)N(CCC#N)CCC#N)o1)C(C)(C)CCC2(C)C [drawing 1536]
77%

// returns reported inhibition at 10 µM for input Cc1cc2c(cc1Cc1ccc(C(=O)NC(C)c3cccc4ccccc34)o1)C(C)(C)CCC2(C)C (stereo not shown)
28%

// returns reported inhibition at 10 µM for input Cc1cc2c(cc1Cc1ccc(C(=O)N3CCN(C4Nc5ccccc5Oc5ccc(Cl)cc54)CC3)o1)C(C)(C)CCC2(C)C (stereo not shown)
5%

// returns reported inhibition at 10 µM for input Cc1cc2c(cc1Cc1ccc(C(=O)N3CCCCC3CCN3CCCCC3)o1)C(C)(C)CCC2(C)C (stereo not shown)
103%

---

Hi there, I'd appreciate the recorded IC50 for every entry that follows.
- Test system: human GnRH receptor (Homo sapiens, UniProt P30968)
- Construct: expressed in transfected cells; host or cells: HEK 293 (hGnRH-R/293, from Dr. Stuart Sealfon)
- Sequence (P30968 whole entry): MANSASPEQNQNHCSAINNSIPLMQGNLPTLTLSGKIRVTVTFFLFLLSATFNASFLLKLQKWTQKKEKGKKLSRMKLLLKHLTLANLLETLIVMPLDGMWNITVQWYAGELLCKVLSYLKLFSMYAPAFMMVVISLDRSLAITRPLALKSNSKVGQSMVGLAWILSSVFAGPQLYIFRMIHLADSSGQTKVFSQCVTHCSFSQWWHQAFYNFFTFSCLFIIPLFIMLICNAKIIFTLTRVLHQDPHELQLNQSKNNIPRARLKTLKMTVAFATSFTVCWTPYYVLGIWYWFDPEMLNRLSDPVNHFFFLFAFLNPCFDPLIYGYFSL
- Test summary: Radioligand binding, 125I-GnRH-A displacement, membranes of HEK 293 cells with human GnRH receptor
- Details: read-out: hGnRH IC50
- Method: All compounds were diluted in 1% DMSO (final assay concentration) in binding assay buffer. […] Reactions were terminated by rapid filtration onto 96-well Packard GF/C filters soaked in 0.1% polyethyleneimine. Filters were washed three times with PBS buffer, dried and counted on a Packard Topcount by liquid scintillation counting. […] The reaction mixture was vortexed and incubated for 1 min at room temperature. […] Fractions were assessed for biological activity by radioligand binding. […]
The response must be a number in nM with no trailing unit.

Value wanted: IC50 (human GnRH receptor (Homo sapiens, UniProt P30968)) of entry Cc1cc2c(cc1Cc1ccc(C(=O)NCC3CCC(CNc4nccc(Cl)n4)CC3)o1)C(C)(C)CCC2(C)C (stereo not drawn)
8000

Value wanted: IC50 (human GnRH receptor (Homo sapiens, UniProt P30968)) of entry COc1cc(OC)c(NC(=O)c2ccc(Cc3cc4c(cc3C)C(C)(C)CC4(C)C)o2)c(OC)c1
3.2

Value wanted: IC50 (human GnRH receptor (Homo sapiens, UniProt P30968)) of entry COc1cc(C)c(Cl)c(C)c1Cc1ccc(C(=O)Nc2c(OC)cccc2OC)o1
60

Value wanted: IC50 (human GnRH receptor (Homo sapiens, UniProt P30968)) of entry COC(=O)c1cc(OC)c(OC)c(OC)c1NC(=O)c1ccc(Cc2cc3c(cc2C)C(C)(C)CCC3(C)C)o1
380

Value wanted: IC50 (human GnRH receptor (Homo sapiens, UniProt P30968)) of entry Cc1ccc(CNC(=O)c2ccc(Cc3cc4c(cc3C)C(C)(C)CCC4(C)C)o2)cc1C
55

Value wanted: IC50 (human GnRH receptor (Homo sapiens, UniProt P30968)) of entry COC(CCCNC(=O)c1ccc(Cc2cc3c(cc2C)C(C)(C)CCC3(C)C)o1)OC
135

Value wanted: IC50 (human GnRH receptor (Homo sapiens, UniProt P30968)) of entry CCOC(=O)Cc1ccc(NC(=O)c2ccc(Cc3cc4c(cc3C)C(C)(C)CCC4(C)C)o2)cc1
3800

Value wanted: IC50 (human GnRH receptor (Homo sapiens, UniProt P30968)) of entry CCOc1cccc(O)c1NC(=O)c1ccc(Cc2cc3c(cc2C)C(C)(C)CCC3(C)C)o1
235

Value wanted: IC50 (human GnRH receptor (Homo sapiens, UniProt P30968)) of entry Cc1cc2c(cc1Cc1ccc(C(=O)NCC3CCC(C#N)CC3)o1)C(C)(C)CCC2(C)C (stereo not drawn)
30

Value wanted: IC50 (human GnRH receptor (Homo sapiens, UniProt P30968)) of entry COc1cc2c(cc1Cc1ccc(C(=O)NCc3cccc(CNc4ccnc(NC[C@H]5CCCO5)n4)c3)o1)C(C)(C)CCC2(C)C (stereo in doubt)
92

Value wanted: IC50 (human GnRH receptor (Homo sapiens, UniProt P30968)) of entry Cc1cc2c(cc1Cc1ccc(C(=O)NCc3cccc(CNc4ncc(F)c(N)n4)c3)o1)C(C)(C)CCC2(C)C
620

Value wanted: IC50 (human GnRH receptor (Homo sapiens, UniProt P30968)) of entry COc1cc(OC)c(NC(=O)c2ccc(Cc3cc(OC)cc(OC)c3OC)o2)c(OC)c1
8620

Value wanted: IC50 (human GnRH receptor (Homo sapiens, UniProt P30968)) of entry Cc1cc2c(cc1Cc1ccc(C(=O)NCc3cccc(CNc4nccc(NC[C@@H]5CCCO5)n4)c3)o1)C(C)(C)CCC2(C)C
12

Value wanted: IC50 (human GnRH receptor (Homo sapiens, UniProt P30968)) of entry COc1cc(OC)c(NC(=O)c2ccc(Cc3cc4c(cc3C)CCCC4(C)C)o2)c(OC)c1
6.8

Value wanted: IC50 (human GnRH receptor (Homo sapiens, UniProt P30968)) of entry COCCNC(=O)c1ccc(Cc2cc3c(cc2C)C(C)(C)CCC3(C)C)o1
530

Value wanted: IC50 (human GnRH receptor (Homo sapiens, UniProt P30968)) of entry Cc1cc2c(cc1Cc1ccc(C(=O)NCC3CCN(C(=N)N)CC3)o1)C(C)(C)CCC2(C)C
1200

Value wanted: IC50 (human GnRH receptor (Homo sapiens, UniProt P30968)) of entry Cc1cc2c(cc1Cc1ccc(C(=O)Nc3ccc(C(N)=O)cc3)o1)C(C)(C)CCC2(C)C
1180

Value wanted: IC50 (human GnRH receptor (Homo sapiens, UniProt P30968)) of entry COc1cccc(CNC(=O)c2ccc(Cc3cc4c(cc3C)C(C)(C)CCC4(C)C)o2)c1OC
290

Value wanted: IC50 (human GnRH receptor (Homo sapiens, UniProt P30968)) of entry Cc1cc2c(cc1Cc1ccc(C(=O)Nc3cccc(CO)c3)o1)C(C)(C)CCC2(C)C
1100

Value wanted: IC50 (human GnRH receptor (Homo sapiens, UniProt P30968)) of entry Cc1cc2c(cc1Cc1ccc(C(=O)NC3CCN(c4nccc(NCC5CCCO5)n4)C3)o1)C(C)(C)CCC2(C)C (stereo not drawn)
1810

Value wanted: IC50 (human GnRH receptor (Homo sapiens, UniProt P30968)) of entry Cc1cc2c(cc1Cc1ccc(C(=O)NC[C@H]3CC[C@H](CNc4ccnc(NC[C@H]5CCCO5)n4)CC3)o1)C(C)(C)CCC2(C)C
185

Value wanted: IC50 (human GnRH receptor (Homo sapiens, UniProt P30968)) of entry Cc1ccc(CNC(=O)c2ccc(Cc3cc4c(cc3C)C(C)(C)CCC4(C)C)o2)cc1
80

Value wanted: IC50 (human GnRH receptor (Homo sapiens, UniProt P30968)) of entry COc1cc(OC)c(NC(=O)c2cc(Cc3cc4c(cc3C)C(C)(C)CCC4(C)C)on2)c(OC)c1
6460

Value wanted: IC50 (human GnRH receptor (Homo sapiens, UniProt P30968)) of entry COc1cccc(OC)c1NC(=O)c1ccc(Cc2c(C)cc(C)cc2C)o1
128

Value wanted: IC50 (human GnRH receptor (Homo sapiens, UniProt P30968)) of entry Cc1cc2c(cc1Cc1ccc(C(=O)NCc3cccs3)o1)C(C)(C)CCC2(C)C
390

Value wanted: IC50 (human GnRH receptor (Homo sapiens, UniProt P30968)) of entry Cc1cc2c(cc1Cc1ccc(C(=O)NCc3cccc(CN)c3)o1)C(C)(C)CCC2(C)C
110

Value wanted: IC50 (human GnRH receptor (Homo sapiens, UniProt P30968)) of entry COc1cc(OC)c(NC(=O)c2ccc(Cc3cc4c(cc3C(C)C)C(C)(C)CCC4(C)C)o2)c(OC)c1
1140

Value wanted: IC50 (human GnRH receptor (Homo sapiens, UniProt P30968)) of entry Cc1cc2c(cc1Cc1ccc(C(=O)NCC3CN(Cc4ccccc4)CCO3)o1)C(C)(C)CCC2(C)C (stereo not drawn)
980

Value wanted: IC50 (human GnRH receptor (Homo sapiens, UniProt P30968)) of entry Cc1cc2c(cc1Cc1ccc(C(=O)NCC3CCC(CNCc4cc(=O)[nH]c(=O)[nH]4)CC3)o1)C(C)(C)CCC2(C)C (stereo not drawn)
120

Numbers sourced from patent US7101878B1.
